src = patent EP4603105A1

Items are presented alongside their recorded pIC50.
System: human lung cancer strain NCI-H441
Type: cell-based
Where a SMILES comes first, the peptide text is derived from it. Bridges are numbered along the chain shown (N, C = ends). [ ]: non-standard residue; d: D form. The star is where a group is joined. hPhe(3-Cl-4-CF3) = N[C@@H](CCc1ccc(C(F)(F)F)c(Cl)c1)C(=O)O; NPrPhe(4-CF3) = CCCN[C@@H](Cc1ccc(C(F)(F)F)cc1)C(=O)O; NMeGly(cPent) = CN[C@H](C(=O)O)C1CCCC1; Pro(4S-Me) = C[C@@H]1CN[C@H](C(=O)O)C1; NMeD = CN[C@@H](CC(=O)O)C(=O)O; NMeL = CN[C@@H](CC(C)C)C(=O)O; Morpholide = C1CN(*)CCO1; NMeA = CN[C@@H](C)C(=O)O; Ac5c = NC1(C(=O)O)CCCC1; Aze = O=C(O)[C@@H]1CCN1; Sar = CNCC(=O)O
Worth noting: pIC50 values are minus log10 of concentrations stated in mol/L.

molecule: CCO[C@@H]1C[C@H]2C(=O)NC3(CC(C)(C)C3)C(=O)N(C)[C@@H](CC(C)(C)C)C(=O)N(C)[C@H](C(=O)N(C)C)CC(=O)N(C)[C@@H](C(C)C)C(=O)N[C@@H]([C@@H](C)CC)C(=O)N(C)CC(=O)N(C)[C@H]3C/C=C\CCN(C3=O)[C@@H](Cc3ccc(C(F)(F)F)cc3)C(=O)N(C)CC(=O)N[C@@H](CCc3ccc(C(F)(F)F)c(OC)c3)C(=O)N2C1 [PP2773]
recordedNumber: 8.07

Now, please, on to the next molecule.
Summary for this molecule, CCCN1C(=O)[C@@H]2CCN2C(=O)[C@H](C)N(C)C(=O)[C@H]([C@@H](C)CC)NC(=O)[C@H](CC(C)C)N(C)C(=O)C[C@@H](C(=O)N2CCOCC2)N(C)C(=O)[C@H](C2CCCC2)N(C)C(=O)C2(CCCC2)NC(=O)[C@@H]2C[C@H](C)CN2C(=O)[C@H](CCc2ccc(C(F)(F)F)c(Cl)c2)NC(=O)CN(C)C(=O)[C@@H]1Cc1ccc(C(F)(F)F)cc1 [PP0455] ([NMeL]I[NMeA][Aze][NPrPhe(4-CF3)][Sar][hPhe(3-Cl-4-CF3)][Pro(4S-Me)][Ac5c][NMeGly(cPent)][NMeD]-Morpholide; lactam N-11) : pIC50 is 8.00

====

Test system: human lung cancer strain NCI-H441
Type: cell-based
Where a SMILES comes first, the peptide text is derived from it. Bridges are numbered along the chain shown (N, C = ends). [ ]: non-standard residue; d: D form. The star is where a group is joined. hPhe(3,5-F2-4-CF3) = N[C@@H](CCc1cc(F)c(C(F)(F)F)c(F)c1)C(=O)O; NPrPhe(4-CF3) = CCCN[C@@H](Cc1ccc(C(F)(F)F)cc1)C(=O)O; NMeGly(cPent) = CN[C@H](C(=O)O)C1CCCC1; NMeD = CN[C@@H](CC(=O)O)C(=O)O; NMeL = CN[C@@H](CC(C)C)C(=O)O; Morpholide = C1CN(*)CCO1; Ac5c = NC1(C(=O)O)CCCC1; Aze = O=C(O)[C@@H]1CCN1; Sar = CNCC(=O)O
propertyMeasured: pIC50
// pIC50 here means minus log10 of the molar concentration (mol/L)

compound: CCO[C@@H]1C[C@H]2C(=O)NC3(CCC3)C(=O)N(C)[C@@H](C3CCCC3)C(=O)N(C)[C@H](C(=O)N(C)C)CC(=O)N(C)[C@@H](Cc3ccc(C)cc3)C(=O)N[C@@H]([C@@H](C)CC)C(=O)N(C)CC(=O)N(C)[C@H]3CCCCCN(C3=O)[C@@H](Cc3ccc(C(F)(F)F)cc3)C(=O)N(C)CC(=O)N[C@@H](CCc3cc(F)c(C(F)(F)F)c(F)c3)C(=O)N2C1
pIC50: 6.81

compound: CC[C@H](C)[C@@H]1NC(=O)[C@H](CC2CC2)N(C)C(=O)C[C@@H](C(=O)N(C)C)N(C)C(=O)[C@H](C2CCCC2)N(C)C(=O)C2(CCC2)N(C)C(=O)[C@@H]2CCCN2C(=O)[C@H](CCc2cc(F)c(C(F)(F)F)c(F)c2)NC(=O)CN(C)C(=O)[C@H](Cc2ccc(C)cc2)N2CC/C=C\C[C@@H](C2=O)N(C)C(=O)[C@@H]2CCCN2C1=O
pIC50: 8.11

compound: CC[C@H](C)[C@@H]1NC(=O)[C@H](CC(F)(F)F)N(C)C(=O)C[C@@H](C(=O)N2CCOCC2)N(C)C(=O)[C@H](C2CCCC2)N(C)C(=O)C2(CCCC2)NC(=O)[C@@H]2CCCN2C(=O)[C@H](CCc2cc(F)c(C(F)(F)F)c(F)c2)NC(=O)CN(C)C(=O)[C@H](Cc2ccc(C(F)(F)F)cc2)N2CCCC[C@@H](C2=O)N(C)C(=O)CN(C)C1=O
pIC50: 8.60

compound: CCCN1C(=O)[C@@H]2CCN2C(=O)CN(C)C(=O)[C@H]([C@@H](C)CC)NC(=O)[C@H](CC(C)C)N(C)C(=O)C[C@@H](C(=O)N2CCOCC2)N(C)C(=O)[C@H](C2CCCC2)N(C)C(=O)C2(CCCC2)NC(=O)[C@@H]2CCCN2C(=O)[C@H](CCc2cc(F)c(C(F)(F)F)c(F)c2)NC(=O)CN(C)C(=O)[C@@H]1Cc1ccc(C(F)(F)F)cc1 [PP0789] ([NMeL]I[Sar][Aze][NPrPhe(4-CF3)][Sar][hPhe(3,5-F2-4-CF3)]P[Ac5c][NMeGly(cPent)][NMeD]-Morpholide; lactam N-11)
pIC50: 7.90

So, CCO[C@@H]1C[C@H]2C(=O)NC3(CCC3)C(=O)N(C)[C@@H](C3CCCC3)C(=O)N(C)[C@H](C(=O)N(C)CCOC)CC(=O)N(C)[C@@H](CC)C(=O)N[C@@H]([C@@H](C)CC)C(=O)N(C)CC(=O)N(C)[C@H]3C/C=C\CCN(C3=O)[C@@H](Cc3ccc(C(F)(F)F)cc3)C(=O)N(C)CC(=O)N[C@@H](CCc3cc(F)c(C(F)(F)F)c(F)c3)C(=O)N2C1 ? Its pIC50 was 7.88
